Data provenance: ChEMBL document CHEMBL4354844

- Study Target: MDR1 (ABCB1, P-glycoprotein) (Homo sapiens)
- Sequence (P08183 whole entry): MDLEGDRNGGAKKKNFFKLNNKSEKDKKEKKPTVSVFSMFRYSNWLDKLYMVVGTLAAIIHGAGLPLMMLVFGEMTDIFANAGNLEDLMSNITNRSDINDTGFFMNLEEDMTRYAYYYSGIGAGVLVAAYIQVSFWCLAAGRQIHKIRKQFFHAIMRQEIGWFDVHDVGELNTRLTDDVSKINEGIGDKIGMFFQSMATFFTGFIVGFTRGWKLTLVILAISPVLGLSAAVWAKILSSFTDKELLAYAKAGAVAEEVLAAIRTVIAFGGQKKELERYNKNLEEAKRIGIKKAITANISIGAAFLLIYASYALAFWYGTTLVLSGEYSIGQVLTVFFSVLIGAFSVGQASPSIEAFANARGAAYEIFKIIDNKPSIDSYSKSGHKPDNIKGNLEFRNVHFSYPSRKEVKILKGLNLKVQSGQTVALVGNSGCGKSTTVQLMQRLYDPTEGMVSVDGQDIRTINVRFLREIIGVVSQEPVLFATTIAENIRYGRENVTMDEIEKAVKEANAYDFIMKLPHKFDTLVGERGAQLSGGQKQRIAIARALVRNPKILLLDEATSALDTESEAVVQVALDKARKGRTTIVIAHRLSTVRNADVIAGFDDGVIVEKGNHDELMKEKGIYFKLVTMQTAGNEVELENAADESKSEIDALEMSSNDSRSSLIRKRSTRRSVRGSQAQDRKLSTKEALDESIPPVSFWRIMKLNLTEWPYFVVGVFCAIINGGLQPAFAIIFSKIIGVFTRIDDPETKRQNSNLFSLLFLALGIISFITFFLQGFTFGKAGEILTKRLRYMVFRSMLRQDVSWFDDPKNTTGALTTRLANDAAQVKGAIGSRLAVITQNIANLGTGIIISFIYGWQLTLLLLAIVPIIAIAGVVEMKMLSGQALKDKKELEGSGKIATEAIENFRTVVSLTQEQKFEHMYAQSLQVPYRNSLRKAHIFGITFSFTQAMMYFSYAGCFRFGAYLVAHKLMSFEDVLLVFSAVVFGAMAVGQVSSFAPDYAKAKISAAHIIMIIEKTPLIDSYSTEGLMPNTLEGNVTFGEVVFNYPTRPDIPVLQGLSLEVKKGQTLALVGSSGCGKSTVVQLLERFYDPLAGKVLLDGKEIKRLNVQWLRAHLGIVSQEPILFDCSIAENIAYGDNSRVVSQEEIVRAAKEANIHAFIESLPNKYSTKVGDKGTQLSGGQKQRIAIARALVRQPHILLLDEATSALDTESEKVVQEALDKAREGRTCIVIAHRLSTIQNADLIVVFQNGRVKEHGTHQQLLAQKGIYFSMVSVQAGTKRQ
- Procedure Details: Substrate activity at human MDR1 expressed in LLC-PK1 cells assessed as efflux ratio of permeability at 1 uM measured after 3.5 hrs by lucifer yellow based scintillation counting or HPLC method
- Format: ADME, cell-based
Consider the following compounds; for each one, report its efflux ratio at 3.5 h, 1 µM.

Data request: Consider the compound `Clc1ccc2c(c1)CNCc1nnc([C@H]3CC[C@H](Oc4ccccc4)CC3)n1-2` and give its recorded efflux ratio at 3.5 h, 1 µM.
Data returned: 4.3

Data request: Consider the compound `CN1Cc2cc(Cl)ccc2-n2c(nnc2[C@H]2CC[C@H](Oc3ccccn3)CC2)C1` and give its recorded efflux ratio at 3.5 h, 1 µM.
Data returned: < 2

Data request: Consider the compound `CN1Cc2cc(Cl)ccc2-n2c(nnc2[C@H]2CC[C@H](c3noc4ccccc43)CC2)C1` and give its recorded efflux ratio at 3.5 h, 1 µM.
Data returned: 1.4

Data request: Consider the compound `CN1Cc2cc(Cl)ccc2-n2c(nnc2[C@H]2CC[C@H](c3ccccn3)CC2)C1` and give its recorded efflux ratio at 3.5 h, 1 µM.
Data returned: 4.4

Data request: Consider the compound `CN1Cc2cc(Cl)ccc2-n2c(nnc2[C@H]2CC[C@H](C3=NOCC3)CC2)C1` and give its recorded efflux ratio at 3.5 h, 1 µM.
Data returned: 6.1

----------
- Procedure Details: Selectivity ratio of Kb for antagonist activity at human V2 receptor to Kb for antagonist activity at human Gq5s-coupled V1a receptor expressed in CHO cells
Consider the following compounds; for each one, report its Selectivity ratio.

Data request: Consider the compound CN1Cc2cc(Cl)ccc2-n2c(nnc2C2CC=C(c3ccccc3)CC2)C1 (racemic) and give its recorded Selectivity ratio.
Data returned: 90

Data request: Consider the compound `CN1Cc2cc(Cl)ccc2-n2c(nnc2[C@H]2CC[C@H](c3ccccn3)CC2)C1` and give its recorded Selectivity ratio.
Data returned: 1081

Data request: Consider the compound `CN(C)S(=O)(=O)N1Cc2cc(Cl)ccc2-n2c(nnc2[C@H]2CC[C@H](Oc3ccccc3)CC2)C1` and give its recorded Selectivity ratio.
Data returned: 445

Data request: Consider the compound `CN1Cc2cc(Cl)ccc2-n2c(nnc2[C@H]2CC[C@H](Oc3ccccc3)CC2)C1` and give its recorded Selectivity ratio.
Data returned: 629

Data request: Consider the compound `CN1Cc2cc(Cl)ccc2-n2c(nnc2N2CCC3(CC2)COCc2ccccc23)C1` and give its recorded Selectivity ratio.
Data returned: 167

Data request: Consider the compound `CN(C)CC(=O)N1Cc2cc(Cl)ccc2-n2c(nnc2[C@H]2CC[C@H](Oc3ccccc3)CC2)C1` and give its recorded Selectivity ratio.
Data returned: 963

Data request: Consider the compound `CC(C)N1Cc2cc(Cl)ccc2-n2c(nnc2[C@H]2CC[C@H](Oc3ccccc3)CC2)C1` and give its recorded Selectivity ratio.
Data returned: 535

Data request: Consider the compound `OCCN1Cc2cc(Cl)ccc2-n2c(nnc2[C@H]2CC[C@H](Oc3ccccc3)CC2)C1` and give its recorded Selectivity ratio.
Data returned: 1091

Data request: Consider the compound `CN1Cc2cc(Cl)ccc2-n2c(nnc2C2CCN(c3ccccn3)CC2)C1` and give its recorded Selectivity ratio.
Data returned: 2478

Data request: Consider the compound `CN1Cc2cc(Cl)ccc2-n2c(nnc2[C@H]2CC[C@@]3(CC2)OCc2ccccc23)C1` and give its recorded Selectivity ratio.
Data returned: 669

Data request: Consider the compound `CN1Cc2cc(Cl)ccc2-n2c(nnc2N2CCC3(CC2)OCCc2ccccc23)C1` and give its recorded Selectivity ratio.
Data returned: 44

Data request: Consider the compound `CN1Cc2cc(Cl)ccc2-n2c(nnc2N2CCC3(CC2)OCc2ccccc23)C1` and give its recorded Selectivity ratio.
Data returned: 218

Data request: Consider the compound `Clc1ccc2c(c1)CNCc1nnc([C@H]3CC[C@H](Oc4ccccc4)CC3)n1-2` and give its recorded Selectivity ratio.
Data returned: 523

Data request: Consider the compound `Cc1nnc(-c2ccc(-c3ccccc3)cc2)n1-c1ccccc1OCCCCCCN1CCN(C)CC1` and give its recorded Selectivity ratio.
Data returned: 67

Data request: Consider the compound `CS(=O)(=O)N1Cc2cc(Cl)ccc2-n2c(nnc2[C@H]2CC[C@H](Oc3ccccc3)CC2)C1` and give its recorded Selectivity ratio.
Data returned: 573

Data request: Consider the compound `CN1Cc2cc(Cl)ccc2-n2c(nnc2[C@H]2CC[C@]3(CC2)OCc2ccccc23)C1` and give its recorded Selectivity ratio.
Data returned: 19

Data request: Consider the compound `Clc1ccc2c(c1)CN(C1CCC1)Cc1nnc([C@H]3CC[C@H](Oc4ccccc4)CC3)n1-2` and give its recorded Selectivity ratio.
Data returned: 179

Data request: Consider the compound `CN1Cc2cc(Cl)ccc2-n2c(nnc2N2CCC3(CC2)SCc2ccccc23)C1` and give its recorded Selectivity ratio.
Data returned: 65

Data request: Consider the compound `CN1Cc2cc(Cl)ccc2-n2c(nnc2N2CCC(O)(c3ccccc3)CC2)C1` and give its recorded Selectivity ratio.
Data returned: 38
